Multi-source literature compilation: pKi on UniProtKB Q16790.
Just the number, please; pKi means minus log10 of the concentration in mol/L.

Any idea what its pKi is? The compound is NS(=O)(=O)c1ccc(CC/N=C/c2ccccc2/C=N/CCc2ccc(S(N)(=O)=O)cc2)cc1
7.75

Any idea what its pKi is? The compound is NS(=O)(=O)c1ccc(OCc2ccccc2)cc1
7.75

Any idea what its pKi is? The compound is O=C1C=CCN1c1cc2c(=O)n(O)c(=O)[nH]c2cc1Cl
8.08

Any idea what its pKi is? The compound is NS(=O)(=O)c1ccc(-c2nonc2Oc2ccccc2)cc1
7.15

Any idea what its pKi is? The compound is CS/C(=N\c1nc2ccc(S(N)(=O)=O)cc2s1)NCCN/C(=N/c1nc2ccc(S(N)(=O)=O)cc2s1)SC
8.60

Any idea what its pKi is? The compound is NS(=O)(=O)c1ccc(NC(=O)CN2CCC(C(=O)NN=C3C(=O)Nc4ccc(Cl)cc43)CC2)cc1
7.84

Any idea what its pKi is? The compound is NS(=O)(=O)c1ccc(CC/N=C/c2ccc(-c3ccccn3)cc2)cc1
7.55

Any idea what its pKi is? The compound is COC(=O)C1=Cc2cc(C(C)(C)C)ccc2OC(=O)C1
7.43

Any idea what its pKi is? The compound is COc1ccc(S(=O)(=O)Nc2ccc(C3C4=C(CC(C)(C)CC4=O)N(c4ccc(S(N)(=O)=O)cc4)C4=C3C(=O)CC(C)(C)C4)cc2)cc1
6.36

###

Multi-source literature compilation: Ki on Carbonic anhydrase 9 (Homo sapiens, UniProt Q16790).
Kindly answer with a numeric value in nM, unit omitted.

Write down the reported Ki of Cc1ccc(-c2nn(-c3nc4ccc(S(N)(=O)=O)cc4s3)cc2C(=O)O)cc1 , test system: Carbonic anhydrase 9 (Homo sapiens, UniProt Q16790).
109

Write down the reported Ki of N#CCC(=O)Nc1ccc(S(N)(=O)=O)cc1 , test system: Carbonic anhydrase 9 (Homo sapiens, UniProt Q16790).
5.2

Write down the reported Ki of NS(=O)(=O)c1ccc(NC(=O)N2CCN(c3ccc(Cl)c(Cl)c3)CC2)cc1 , test system: Carbonic anhydrase 9 (Homo sapiens, UniProt Q16790).
268

Write down the reported Ki of O=C(O)c1ccc(O)cc1 , test system: Carbonic anhydrase 9 (Homo sapiens, UniProt Q16790).
3730

Write down the reported Ki of CCOC(=O)CCc1c(C)nn(-c2ccncc2S(N)(=O)=O)c1C , test system: Carbonic anhydrase 9 (Homo sapiens, UniProt Q16790).
19.5

Write down the reported Ki of NS(=O)(=O)c1ccc(N2C(=O)[C@H]3CC=CC[C@H]3C2=O)cc1 , test system: Carbonic anhydrase 9 (Homo sapiens, UniProt Q16790).
4.4

Write down the reported Ki of Oc1ccccc1/C=N/CCC/N=C/c1ccccc1O , test system: Carbonic anhydrase 9 (Homo sapiens, UniProt Q16790).
15700

Write down the reported Ki of COc1ccc2c(c1)C(=O)CC1(CCN(c3ccc(S(N)(=O)=O)cc3[N+](=O)[O-])CC1)O2 , test system: Carbonic anhydrase 9 (Homo sapiens, UniProt Q16790).
1560

###

Multi-source literature compilation: pKi on Carbonic anhydrase 9 (Homo sapiens, UniProt Q16790).
Just the number, please; pKi means minus log10 of the concentration in mol/L.

Any idea what its pKi is? The compound is NS(=O)(=O)c1ccc(NC(=O)Nc2cc([N+](=O)[O-])ccc2Cl)cc1
8.09

Any idea what its pKi is? The compound is Cc1c(CC(=O)Nc2ccc(S(N)(=O)=O)cc2)c(=O)oc2cc3occ(-c4ccc(Cl)cc4)c3cc12
7.75

Any idea what its pKi is? The compound is NS(=O)(=O)c1ccc(NC(=O)Nc2nc(Nc3ccc(Cl)cc3)nc(N3CCOCC3)n2)cc1
7.54

Any idea what its pKi is? The compound is Cc1nn(-c2ccccc2)c2c1c(=O)oc1ccc(N)cc12
7.46

Any idea what its pKi is? The compound is NS(=O)(=O)c1ccc(-n2nnc(C(=O)O)c2-c2ccc(F)cc2)cc1
5.80

Any idea what its pKi is? The compound is NS(=O)(=O)c1ccc(NC(=O)Nc2nc(Nc3ccc(F)cc3)nc(N3CCOCC3)n2)cc1
6.73

Any idea what its pKi is? The compound is NS(=O)(=O)c1ccc(-c2ccc(C(O)c3cccc(C(=O)O)c3)cc2)cc1 (centres undefined)
7.05

Any idea what its pKi is? The compound is COc1cc(-c2ccc(S(N)(=O)=O)cc2)cc(OC)c1OC
6.59

Any idea what its pKi is? The compound is O=C(CN1CCN(C(=O)S)CC1)NC1CCCCC1
7.85

Any idea what its pKi is? The compound is CC(F)(F)CNS(=O)(=O)c1ccc(N)cc1
7.33

Any idea what its pKi is? The compound is CCCN(CCC)S(=O)(=O)c1ccc(C(=O)N[C@@H](Cc2ccccc2)C(=O)O)cc1
6.68

Any idea what its pKi is? The compound is NS(=O)(=O)c1cccc(N2C(=O)c3cccc([N+](=O)[O-])c3C2=O)c1
5.08

Any idea what its pKi is? The compound is NS(=O)(=O)c1cccc(NCCC(=O)c2ccc3ccccc3c2)c1
7.41

Any idea what its pKi is? The compound is Cc1c(C(=O)NCCN2CCCC2)cc(-c2ccc(-c3ccccc3)cc2)n1-c1ccc(S(N)(=O)=O)cc1
6.82

Any idea what its pKi is? The compound is CC(=O)O[C@@H]1O[C@H](COS(N)(=O)=O)[C@@H](OC(C)=O)[C@H](OC(C)=O)[C@H]1OC(C)=O
7.14

Any idea what its pKi is? The compound is CC(C(=O)Nc1ccc(S(N)(=O)=O)cc1)S(=O)(=O)c1ccccc1 (centres undefined)
8.19

Any idea what its pKi is? The compound is COc1ccc2[nH]c(-c3ccc(S(N)(=O)=O)cc3)cc2c1
6.81

Any idea what its pKi is? The compound is CCN(CC)c1ccc(C=O)c(OCc2cn(CCCOc3ccc4ccc(=O)oc4c3)nn2)c1
6.80

Any idea what its pKi is? The compound is NS(=O)(=O)c1ccc(CC/N=C/c2cccc(Br)c2O)cc1
6.60

Any idea what its pKi is? The compound is CCCCc1cc(-c2ccccc2)cc(-c2ccccc2)[n+]1Cc1ccc(S(N)(=O)=O)cc1
6.87

Any idea what its pKi is? The compound is CC(=O)Nc1ccc(S(=O)(=O)Nc2nnc(S(N)(=O)=O)s2)cc1F
7.10

Any idea what its pKi is? The compound is N#Cc1cn(-c2nc3ccc(S(N)(=O)=O)cc3s2)nc1-c1ccc(Cl)cc1
6.65

Any idea what its pKi is? The compound is CC(=O)Nc1ccc(S(N)(=O)=O)cc1Br
6.69

Any idea what its pKi is? The compound is NS(=O)(=O)c1ccc(NC(=O)Nc2ccc(Br)cc2)cc1
7.16

Any idea what its pKi is? The compound is NC(=O)Cn1ccc(=O)c(S(N)(=O)=O)c1
7.19

Any idea what its pKi is? The compound is NS(=O)(=O)c1ccc(CN2C(=O)c3cccc4cc([N+](=O)[O-])cc(c34)C2=O)cc1
6.60

Any idea what its pKi is? The compound is NS(=O)(=O)c1ccc(-n2cc(COc3ccnc(N4CCCCC4)n3)nn2)cc1
7.38

Any idea what its pKi is? The compound is CC(=O)N1N=C(c2cccc(OS(N)(=O)=O)c2)CC1c1ccc(C)cc1 (centres undefined)
7.53

Any idea what its pKi is? The compound is NS(=O)(=O)c1ccc(C(=O)N2CCN(C(=O)c3cc4ccccc4s3)CC2)cc1
7.01

Any idea what its pKi is? The compound is NS(=O)(=O)c1ccc(NC(=O)CCC(=O)NCCOCCOCCNC(=O)CCC(=O)Nc2ccc(S(N)(=O)=O)cc2)cc1
8.54

Any idea what its pKi is? The compound is NS(=O)(=O)c1ccc(CCNC(=O)N/C=C/C=C/c2ccc3c(c2)OCO3)cc1
7.17

Any idea what its pKi is? The compound is COc1ccc(-c2cn(-c3ccc4c(c3)C=CS(=O)(=O)O4)nn2)cc1
7.74

Any idea what its pKi is? The compound is CC(=O)OC[C@H]1O[C@@H](S(=O)(=O)Cc2cn(-c3ccc(S(N)(=O)=O)cc3)nn2)[C@H](OC(C)=O)[C@@H](OC(C)=O)[C@@H]1O[C@H]1O[C@H](COC(C)=O)[C@@H](OC(C)=O)[C@H](OC(C)=O)[C@H]1OC(C)=O
7.21

Any idea what its pKi is? The compound is CCON(CC(=O)NO)S(=O)(=O)c1ccc(OC)cc1
5.05

Any idea what its pKi is? The compound is NS(=O)(=O)c1cn(CC(=O)Nc2ccc(Cl)c([N+](=O)[O-])c2)ccc1=O
7.22

Any idea what its pKi is? The compound is COC(=O)[C@H]1O[C@@H](SNCc2ccc(S(N)(=O)=O)cc2)[C@H](OC(C)=O)[C@@H](OC(C)=O)[C@H]1OC(C)=O
6.99

Any idea what its pKi is? The compound is NS(=O)(=O)c1ccc(CNC(=O)CN2C(=O)NC3(CCCCC3)C2=O)cc1
6.98

Any idea what its pKi is? The compound is CC(C(=O)Nc1ccc(S(N)(=O)=O)cc1)N1CCCC(C(=O)N/N=C2\C(=O)N(Cc3ccc(F)cc3)c3ccccc32)C1 (centres undefined)
8.01

Any idea what its pKi is? The compound is S=C(S)NCc1ccncc1
7.59
